System: Zika virus NS2B-NS3 protease (unlinked complex)
protocol_description: Confirmatory screen GU AMC qHTS for Zika virus inhibitors (AID 1347153);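 note: enzyme at 25 nM with substrate at 10 µM below its Km of 18.3 µM; potency is the fitted concentration of half-maximal effect; nearly all actives have a fitted effect of over 70% in size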
test_parameters: Recombinant NS2B-NS3 protease, AMC substrate fluorescence; series mostly up to 111 µM
Results filed as inconclusive are left out. Active and inactive are the calls of the source. Calls come from the whole dose curve; as a rule, active = well fitted inhibition curve with a large enough effect; inconclusive = small, poorly fitted or top-dose-only effect; inactive = flat fitted curve, though single readings scatter.
Task for the reader: assign each of the following compounds its reported Potency.

The cases that follow already have their Potency on record.
compound	Potency
CCOc1ccc(-c2cc(NC(=O)c3c(F)cccc3F)c(C(=O)O)s2)cc1	27.8 µM (active)
C=C1CCC2C(C)(C)CCC[C@]2(C)[C@H]1CC/C(C)=C/C(=O)O (stereo partly specified)	39.3 µM (active)

Dear reader, for each entry below, please note its Potency.
1. Cc1ccc2[nH]c(=O)c(C3=NN(C(=O)CCC(=O)O)C(c4ccc(Br)cc4)C3)c(-c3ccccc3)c2c1 (stereo unspecified)
2. CC1(C)CC=C(c2cnc3ccccc3c2)c2cc(C(=O)Nc3ccc(C(=O)O)cc3)ccc21
3. Cc1ccc([C@@H]2CC=C(C(=O)O)[C@H](c3ccc(C(C)(C)C)cc3)N2S(=O)(=O)c2ccc(C)cc2)cc1
4. COc1cc(/C=C/c2ccccc2)c(C(=O)O)c(O)c1CC=C(C)C

Result ::
1: 49.4 µM (active); 2: 15.6 µM (active); 3: 19.7 µM (active); 4: 34.3 µM (active)

###

System: CRL-7250
protocol_description: Cytotoxic Profiling of Annotated Libraries Using Quantitative High-Throughput Screening (AID 1296008); note: nearly all actives have a fitted effect of over 60% in size
test_parameters: Five cell lines viability, CellTiter-Glo ATP luminescence, 48-72 h
Protocol: Cell-based phenotypic screening is a commonly used approach to discover biological pathways, novel drug targets, chemical probes and high-quality hit-to-lead molecules. […] A pintool (Kalypsys) was used to transfer 23 nL of compound solution to the 1536-well assay plates. […] Plates were left at room temperature for 10 min before imaging the ATP-coupled luminescence using a ViewLux microplate imager (PerkinElmer, Waltham, MA).
Inconclusive results are not listed. The source made the active and inactive calls. Calls come from the whole dose curve; as a rule, active = well fitted inhibition curve with a large enough effect; inconclusive = small, poorly fitted or top-dose-only effect; inactive = flat fitted curve, though single readings scatter.
Would you mind answering with one of these outcomes? y (active), n (inactive)

compound	category
COc1cc(O)c2c(c1)C1(OC2=O)C(C)=CC(=O)C1O (centres undefined)	n
CCCC(=O)Nc1cccc(NC(=O)c2ccccc2Br)c1	n
Cc1c(NC(=O)N2CCOCC2)ccc2c1c1ccccc1n2C(C)C	n
Cc1c(C)c(NCC(=O)N(C)C2CCN(Cc3ccc(C(N)=O)cc3)CC2)c(C)c(C)c1N	n

Query :: How did this test come out for COc1cc(/C=C/C(=O)O[C@H]2[C@H](O)[C@@H](CO)O[C@@]2(CO)O[C@H]2O[C@H](CO)[C@@H](O)[C@H](O)[C@H]2O)cc(OC)c1O ?
Result :: n

Query :: How did this test come out for COc1cc(C(=O)OC[C@@]2(O)CO[C@@H](O[C@H]3[C@H](Oc4ccc(O)cc4)O[C@H](CO)[C@@H](O)[C@@H]3O)[C@@H]2O)cc(OC)c1O ?
Result :: n

Query :: How did this test come out for Cc1cc(C(=O)N2Cc3cnn(C)c3Nc3ccccc32)ccc1CNC(=O)N1CCN(Cc2cc(O)cc(O)c2)CC1 ?
Result :: n

Query :: How did this test come out for CC(CNS(=O)(=O)C(C)C)c1ccc(-c2ccc(C#N)cc2)cc1 (centres undefined) ?
Result :: y

Query :: How did this test come out for Cc1occc(=O)c1O[C@@H]1O[C@H](COC(=O)CC(C)(O)CC(=O)O)[C@@H](O)[C@H](O)[C@H]1O (some centres undefined) ?
Result :: n
